molecular target: NLRP3 (Homo sapiens); experiment: Human whole blood IL1β release assay; assay type: cell-based; details: LPS 1 μg/ml, nigericin 10 μM, IL-1β AlphaLisa, 10 μM top dose (Example 2: top dose of 30 μM), read-out: HWB IC50
Sequence (Q96P20 whole entry): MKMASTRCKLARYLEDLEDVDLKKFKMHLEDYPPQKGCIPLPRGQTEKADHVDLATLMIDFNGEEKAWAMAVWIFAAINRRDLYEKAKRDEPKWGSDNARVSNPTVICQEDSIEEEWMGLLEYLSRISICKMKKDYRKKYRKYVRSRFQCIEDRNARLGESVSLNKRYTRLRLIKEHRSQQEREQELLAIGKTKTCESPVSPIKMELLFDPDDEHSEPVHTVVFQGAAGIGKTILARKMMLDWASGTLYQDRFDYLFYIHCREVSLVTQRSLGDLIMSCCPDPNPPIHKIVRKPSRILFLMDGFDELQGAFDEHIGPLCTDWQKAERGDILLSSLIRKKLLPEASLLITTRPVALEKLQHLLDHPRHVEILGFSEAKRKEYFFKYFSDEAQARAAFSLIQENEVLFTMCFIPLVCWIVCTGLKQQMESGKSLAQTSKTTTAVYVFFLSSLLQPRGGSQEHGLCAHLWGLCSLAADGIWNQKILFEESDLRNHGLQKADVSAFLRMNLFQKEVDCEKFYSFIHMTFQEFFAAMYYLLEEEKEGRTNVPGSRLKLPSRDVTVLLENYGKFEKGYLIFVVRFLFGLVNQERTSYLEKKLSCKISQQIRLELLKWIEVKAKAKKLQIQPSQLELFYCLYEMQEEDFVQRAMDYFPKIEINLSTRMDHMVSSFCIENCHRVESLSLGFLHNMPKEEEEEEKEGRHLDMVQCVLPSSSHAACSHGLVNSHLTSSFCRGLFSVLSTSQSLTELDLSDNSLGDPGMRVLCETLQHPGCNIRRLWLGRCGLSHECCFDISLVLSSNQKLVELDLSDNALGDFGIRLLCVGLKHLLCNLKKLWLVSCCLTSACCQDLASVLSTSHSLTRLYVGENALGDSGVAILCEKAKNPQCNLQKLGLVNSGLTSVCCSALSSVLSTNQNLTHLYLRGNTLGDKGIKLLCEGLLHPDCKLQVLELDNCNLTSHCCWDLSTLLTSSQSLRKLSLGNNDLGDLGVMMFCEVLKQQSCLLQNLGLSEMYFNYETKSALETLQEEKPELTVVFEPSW
endpointName: IC50

>>> df
                                   compound   result
0  O=S(=O)(NCC1CCCCN1)c1nnc(Nc2c3c(cc4c2CCC4)CCC3)[nH]1 (centres unmarked)  ≤ 10 µM
1  CN(C)C(=O)C1CCN(S(=O)(=O)c2nnc(Nc3c4c(cc5c3CCC5)CCC4)[nH]2)C1 (centres unmarked)  ≤ 10 µM
2  CN(C)C1CCN(S(=O)(=O)c2nnc(Nc3c(-c4ccnc(OC(F)F)c4)ccc4c3CCO4)[nH]2)CC1   ≤ 1 µM
3  O=S(=O)(NCCCN1CCCC1)c1nnc(Nc2c3c(cc4c2CCC4)CCC3)[nH]1   ≤ 5 µM
4  COc1cc(-c2ccc3c(c2Nc2nnc(S(=O)(=O)c4ccn(C)n4)[nH]2)CCC3)ccn1   ≤ 5 µM
5  CC(O)Cn1ccc(S(=O)(=O)c2nnc(Nc3c4c(cc5c3CCC5)CCC4)[nH]2)n1 (centres unmarked)  ≤ 10 µM

// returns reported IC50 for input `O=S(=O)(CCCN1CCCC1)c1nnc(Nc2c3c(cc4c2CCC4)CCC3)[nH]1`
≤ 1 µM

Entry `CNCCCS(=O)(=O)c1nnc(Nc2c3c(cc4c2CCC4)CCC3)[nH]1` please
≤ 10 µM
